Could you please report measured max response for the items listed next?
# measurement-protocol: qHTS RealTime-Glo MT Cell Viability Assay in HEK293 cells - 40 hour (AID 1224874); also: % is scaled to controls: 0 for no effect and ±100 for the full control effect; nearly all actives have a fitted effect of over 50% in size
# experimental-parameters: RealTime-Glo luminescence; hits give low values
Inconclusive results are not listed.
Numbers only, in %.

Study these solved cases before continuing.
molecule	display-unit	max response
O=C1CCCCC1Cl (stereo not drawn)	%	11.3
CCCOC(=O)c1cncn1C(C)c1ccccc1 (stereo not drawn)	%	-0.62
CCCN1CCC[C@@H]2Cc3nc(N)ncc3C[C@H]21	%	3.64
CCCC(C)(COC(N)=O)COC(N)=O	%	2.95
CC(C)[C@]12CC(=O)[C@H](C)[C@H]1C2	%	-4.49

For every item in the list below, what is its measured max response?
1. CN(CCO)CCO
2. BrCc1ccc(Br)cc1

1. -0.53
2. 4.4

Please give max response, item by item, for the list that follows.
1. CCNP(=S)(OC)O/C(C)=C/C(=O)OC(C)C (stereo not drawn)
2. CCNc1nc(Cl)nc(NC(C)(C)C)n1
3. NCC1(CC(=O)O)CCCCC1
4. CN(C)CCc1c[nH]c2cccc(OP(=O)(O)O)c12

[-13.5, -11, 1.23, -0.389]

Please state max response for every molecule in the list that follows.
1. C[C@@H](N)[C@@H](O)c1ccccc1
2. O=[N+]([O-])CCO
3. CN1C(=O)COc2c(C(=O)NC3CN4CCC3CC4)cc(Cl)cc21 (stereo not drawn)
4. COc1ccc(CN2CCNCC2)c(OC)c1OC

1. 1.05
2. 3.11
3. 3.5
4. 5.58

Return reported max response values for all items listed beneath this line.
1. COc1ccccc1OC
2. O=c1[nH]c2ccccc2n1C1CCNCC1
3. CCNc1nc(NCC)nc(SC)n1
4. O=P(O)(O)c1ccccc1
5. O=C/C=C/c1ccco1
6. O=C(Cl)OCc1ccccc1
7. CC(Cc1ccccc1)NCCCCl (stereo not drawn)
8. O=C(O)C(Br)(Br)Br

1. 0.0799
2. 2.11
3. -13.3
4. 9.41
5. 3.04
6. 10.6
7. 5.94
8. -0.0563
